Cited source: ChEMBL document CHEMBL1133189

target desc: Sodium-dependent dopamine transporter (Homo sapiens, UniProt Q01959)
Sequence (Q01959 whole entry): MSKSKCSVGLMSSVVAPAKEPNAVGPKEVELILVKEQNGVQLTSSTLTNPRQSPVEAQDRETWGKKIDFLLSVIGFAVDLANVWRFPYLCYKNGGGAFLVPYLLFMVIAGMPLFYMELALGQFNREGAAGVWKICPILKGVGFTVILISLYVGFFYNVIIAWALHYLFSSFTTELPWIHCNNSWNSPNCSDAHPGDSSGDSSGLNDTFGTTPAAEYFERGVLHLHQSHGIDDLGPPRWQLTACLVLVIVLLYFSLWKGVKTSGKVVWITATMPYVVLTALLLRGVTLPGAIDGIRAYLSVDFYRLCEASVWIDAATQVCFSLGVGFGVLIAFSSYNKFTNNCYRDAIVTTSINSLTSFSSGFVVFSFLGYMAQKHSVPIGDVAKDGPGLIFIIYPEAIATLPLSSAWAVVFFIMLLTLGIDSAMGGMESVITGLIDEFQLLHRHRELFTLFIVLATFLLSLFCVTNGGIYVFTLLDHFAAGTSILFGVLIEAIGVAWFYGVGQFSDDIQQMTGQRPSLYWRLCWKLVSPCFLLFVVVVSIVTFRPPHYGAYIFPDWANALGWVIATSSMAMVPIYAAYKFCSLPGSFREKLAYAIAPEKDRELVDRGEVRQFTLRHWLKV
assay text: Compound was evaluated for inhibition of [3H]DA uptake in HEK-hDAT cells expressing Human dopamine Transporter
Format: cell-based
Parameter: Ki. Scope: all listed entries.
// return numeric value only (unit: µM, not printed)

                            compound_smiles                               target_desc  numeric_value
0  COC(=O)[C@H]1C2CC[C@@H]3C[C@@H]1/C(=C/c1ccc(OC)cc1)CN23  Sodium-dependent dopamine transporter (Homo sapiens, UniProt Q01959)            3.7

Proceeding to the next compound to report its Ki.
Ki on Sodium-dependent dopamine transporter (Homo sapiens, UniProt Q01959) for COC(=O)[C@H]1C2CC[C@@H]3C[C@@H]1/C(=C/c1ccccc1)CN23 is 0.91
